molecular target: MMP-13CD (catalytic domain of collagenase-3) (Homo sapiens, UniProt P45452); experiment: Thiopeptolide substrate hydrolysis inhibition assay, MMP-13CD; assay type: biochemical; conditions: Table I; thiopeptolide substrate, HEPES pH 7.0, 22° C.; read-out: MMP-13CD IC50
Strictly below 2 µM in IC50: label 1. Otherwise: label 0.

### Prompt Does this compound meet the criterion IC50 < 2 µM? Cn1c(=O)n(CC(O)COc2cccc3ccccc23)c(=O)c2cc(C(=O)OCc3ccccc3)sc21 (stereo not shown)
### Response label 0

### Prompt Field: below-cutoff. Rule: recorded IC50 strictly less than 2 µM. Subject: `COC(=O)Nc1cc(Cn2c(=O)c3cc(C(=O)NCc4ccc(OC)cc4)sc3n(C)c2=O)on1`
### Response label 1

### Prompt Record `COc1ccc(OC)c(C(=O)Cn2c(=O)c3cc(C(=O)OCc4ccccc4)sc3n(C)c2=O)c1` : is its IC50 strictly below 2 µM?
### Response label 1

### Prompt IC50 strictly < 2 µM for this compound? `COc1cccc(CNC(=O)c2cc3c(=O)n(CCCCCC#N)c(=O)n(C)c3s2)c1`
### Response label 1

### Prompt Dear reviewer, please state whether `Cn1c(=O)n(Cc2ccc(C(=O)O)cc2)c(=O)c2cc(C(=O)NCc3cc(C(F)(F)F)cc(C(F)(F)F)c3)sc21` has IC50 strictly beneath 2 µM.
### Response label 0

### Prompt For this compound, is IC50 lower than 2 µM? `Cn1c(=O)n(Cc2ccccc2)c(=O)c2cc(C(=O)OCc3ccc(C(F)(F)F)cc3)sc21`
### Response label 1

### Prompt Problem: For the compound `Cc1c(C(=O)OCc2ccccc2)sc2[nH]c(=O)n(Cc3ccc(Br)cc3)c(=O)c12` , is IC50 under 2 µM?
### Response label 0

----------
target: MMP-13CD (catalytic domain of collagenase-3) (Homo sapiens, UniProt P45452); experiment: Thiopeptolide substrate hydrolysis inhibition assay, MMP-13CD; assay type: biochemical; conditions: Table I; thiopeptolide substrate, HEPES pH 7.0, 22° C.; read-out: MMP-13CD IC50
Assay endpoint: IC50 (nM)
I only need the number, in nM, no unit after it.

### Prompt Which value of IC50 has been reported for `COc1ccc(CNC(=O)c2cc3c(=O)n(CC4CCCCC4)c(=O)n(C)c3s2)cc1` in the records?
### Response 119

### Prompt If you can, please state the reported IC50 value of `Cn1c(=O)n(Cc2ccccc2)c(=O)c2cc(C(=O)NCCc3ccccc3)sc21` .
### Response 20000

### Prompt Which IC50 is reported for this molecule? `COC(=O)c1ccc(Cn2c(=O)c3cc(C(=O)NCc4ccc(OC)cc4)sc3n(C)c2=O)cc1OC`
### Response 435

### Prompt Which IC50 value belongs to `C=C(C)Cn1c(=O)c2cc(C(=O)NCc3ccc(OC)cc3)sc2n(C)c1=O` ?
### Response 2150

### Prompt If you can, please state the reported IC50 value of `O=C(OCc1ccc2c(c1)OCO2)c1cc2c(=O)n(Cc3ccccc3)c(=O)[nH]c2s1` .
### Response 68

### Prompt What does the data say about its IC50? Entry: `Cn1c(=O)n(Cc2ccc3c(c2)OCO3)c(=O)c2cc(C(=O)OCc3ccccc3)sc21`
### Response 5.2

### Prompt Would you kindly share the measured IC50 for `Cn1c(=O)n(Cc2ccc(C#N)cc2)c(=O)c2cc(C(=O)OCc3ccccc3)sc21` ?
### Response 6.45

### Prompt What value of IC50 has been reported for the following molecule? `Cc1cc(Cn2c(=O)c3cc(C(N)=O)sc3n(C)c2=O)ccc1C(=O)O`
### Response 7800

### Prompt Give its IC50 value. Item: `COc1cccc(CNC(=O)c2cc3c(=O)n(CCS(=O)(=O)c4cccc(C(F)(F)F)c4)c(=O)n(C)c3s2)c1`
### Response 1250

### Prompt What value of IC50 has been recorded for this entry: `Cn1c(=O)n(Cc2ccccc2)c(=O)c2cc(C(=O)OCc3cccnc3)sc21`
### Response 16

### Prompt Tell me the measured IC50 of COc1cccc(CNC(=O)c2cc3c(=O)n(C(C)c4ccccc4)c(=O)n(C)c3s2)c1 (centres unmarked) , please.
### Response 3500

### Prompt Quick one: IC50 of `CCC(CC)n1c(=O)c2cc(C(=O)NCc3ccc(OC)cc3)sc2n(C)c1=O` ?
### Response 7400

### Prompt Consider the molecule shown here: `COc1ccc(CNC(=O)c2cc3c(=O)n(Cc4ccc([N+](=O)[O-])nc4)c(=O)n(C)c3s2)cc1` What is its recorded IC50?
### Response 1040

### Prompt Which value of IC50 has been reported for `COc1ccc(CNC(=O)c2cc3c(=O)n(Cc4cccc(OC)c4)c(=O)n(C)c3s2)cc1` in the records?
### Response 110

### Prompt Given the entry COc1cccc(COC(=O)c2cc3c(=O)n(Cc4ccccc4)c(=O)n(C)c3s2)c1 [Example 193] , report its measured IC50.
### Response 3.4

### Prompt If you can, please state the reported IC50 value of `Cn1c(=O)n(Cc2ccccc2)c(=O)c2cc(C(=O)NCc3ccncc3)sc21` .
### Response 345

### Prompt Name the recorded IC50 for `COc1cccc(CNC(=O)c2cc3c(=O)n(Cc4ccc(C(=O)OCCN(C)C)cc4)c(=O)n(C)c3s2)c1` .
### Response 63.5

### Prompt Return reported IC50; argument: CCN1CCCC(OC(=O)c2cc3c(=O)n(Cc4ccccc4)c(=O)n(C)c3s2)C1 (centres unmarked)
### Response 4500

### Prompt For the molecule shown here, Cn1c(=O)n(Cc2ccc(S(C)(=O)=O)cc2)c(=O)c2cc(C(=O)OCc3ccccc3)sc21 [Example 101] , give the reported IC50.
### Response 34

### Prompt Please report the recorded IC50 for `COc1cccc(CNC(=O)c2cc3c(=O)n(Cc4ccc(C(=O)OCOC(=O)C(C)(C)C)cc4)c(=O)n(C)c3s2)c1` .
### Response 113

### Prompt Quick one: IC50 of `COc1cc(Cn2c(=O)c3cc(C(=O)OCc4ccccc4)sc3n(C)c2=O)cc(OC)c1` ?
### Response 20.5

### Prompt Name the reported IC50 value associated with the molecule `Cn1c(=O)n(Cc2ccccc2)c(=O)c2cc(C(=O)OCc3ccc(Cl)c(Cl)c3)sc21`
### Response 72

### Prompt I would be grateful if you could share the reported IC50 for `Cn1c(=O)c2cc(C(=O)OCc3ccccc3)sc2n(C)c1=O` .
### Response 3900

### Prompt Entry `COc1cccc(CNC(=O)c2cc3c(=O)n(Cc4ccc([N+](=O)[O-])nc4)c(=O)n(C)c3s2)c1` : reported IC50 = ?
### Response 735

### Prompt Fill in: IC50 of COc1ccc(CNC(=O)c2cc3c(=O)n(CCC(=O)c4ccccc4)c(=O)n(C)c3s2)cc1 [Example 242] is ___
### Response 3000

### Prompt # lookup: IC50 of `COC(=O)c1ccc(Cn2c(=O)c3cc(C(=O)NCc4cccc(OC)c4)sc3n(C)c2=O)cc1C`
### Response 19.5

### Prompt Return reported IC50; argument: Cn1c(=O)n(CC2CO2)c(=O)c2cc(C(=O)OCc3ccccc3)sc21 (centres unmarked)
### Response 510

### Prompt Can you share its IC50? I mean this molecule: `COc1cccc(CNC(=O)c2cc3c(=O)n(CCSc4ccc(Cl)cc4)c(=O)n(C)c3s2)c1`
### Response 7600

### Prompt Give the measured IC50 of CC(CN(C)C)OC(=O)c1cc2c(=O)n(Cc3ccccc3)c(=O)n(C)c2s1 (centres unmarked) .
### Response 20000

----------
Please respond with reported IC50 for every item in the list.
target: MMP-13CD (catalytic domain of collagenase-3) (Homo sapiens, UniProt P45452); experiment: Thiopeptolide substrate hydrolysis inhibition assay, MMP-13CD; format: biochemical; settings: Table I; thiopeptolide substrate, HEPES pH 7.0, 22° C.; read-out: MMP-13CD IC50
Answer format: numeric, µM implied, no suffix.

### Prompt I'd like to know its IC50. The compound in question is O=C(OCc1ccccc1)c1cc2c(=O)n(Cc3ccccc3)c(=O)n(CC3CC3)c2s1 [Example 74]
### Response 71.5

### Prompt Bench note: what IC50 did COc1ccc(CNC(=O)c2cc3c(=O)n(Cc4ccc(C(=O)OC(C)(C)C)cc4)c(=O)n(C)c3s2)cc1OC [Example 53] show?
### Response 30

### Prompt Name the recorded IC50 for COc1cccc(CNC(=O)c2cc3c(=O)n(Cc4ccc(N)nc4)c(=O)n(C)c3s2)c1 [Example 384] .
### Response 0.66

### Prompt Reported IC50 for COc1ccc(CNC(=O)c2cc3c(=O)n(CCOc4ccc(Br)cc4)c(=O)n(C)c3s2)cc1 [Example 273] : what is it?
### Response 0.059

### Prompt // lookup IC50 for Cc1ccc(CCOC(=O)c2cc3c(=O)n(Cc4ccccc4)c(=O)n(C)c3s2)cc1 [Example 155]
### Response 62

### Prompt For the compound shown here, Cn1c(=O)n(Cc2ccc(C(=O)O)c(O)c2)c(=O)c2cc(C(N)=O)sc21 [Example 251] , give the reported IC50.
### Response 0.655

### Prompt Form field: reported IC50 of CC(C)COC(=O)c1cc2c(=O)n(Cc3ccccc3)c(=O)n(C)c2s1 [Example 188]
### Response 19

### Prompt Looking for the measured IC50 of COC(=O)c1ccc(Cn2c(=O)c3cc(C(=O)NCc4ccc(OC)cc4)sc3n(C)c2=O)cc1 [Example 239] , can you help?
### Response 0.0585

### Prompt Suppose we examine the compound COc1ccccc1CNC(=O)c1cc2c(=O)n(Cc3ccccc3)c(=O)n(C)c2s1 [Example 336] ; what IC50 value has been reported?
### Response 30

### Prompt What value of IC50 has been reported for the following compound? Cn1c(=O)n(Cc2ccc(C(=O)OC(C)(C)C)cc2)c(=O)c2cc(C(=O)NCc3cccc(OC(F)F)c3)sc21 [Example 78]
### Response 0.9

### Prompt Looking for the measured IC50 of CCn1c(=O)c2cc(C(=O)OCc3ccccc3)sc2n(C)c1=O [Example 142] , can you help?
### Response 0.39

### Prompt Param item = O=C(OCc1ccoc1)c1cc2c(=O)n(Cc3ccccc3)c(=O)[nH]c2s1 [Example 13] ; retrieve measured IC50.
### Response 18

### Prompt Which IC50 value is on record for Cn1c(=O)n(Cc2ccccc2)c(=O)c2cc(C(=O)NCc3cccc(C(F)(F)F)c3)sc21 [Example 335] ?
### Response 0.25

### Prompt Entry Cn1c(=O)n(Cc2ccccc2)c(=O)c2cc(C(=O)NCCc3ccccn3)sc21 [Example 361] : reported IC50 = ?
### Response 7.7

### Prompt GET /values?readout=IC50&item= COc1ccc(CNC(=O)c2cc3c(=O)n(CCS(=O)(=O)c4ccc(C)cc4)c(=O)n(C)c3s2)cc1 [Example 269]
### Response 26

### Prompt // lookup IC50 for CN1CCC(OC(=O)c2cc3c(=O)n(Cc4ccccc4)c(=O)n(C)c3s2)CC1 [Example 161]
### Response 11

### Prompt For Cn1c(=O)n(Cc2ccccc2)c(=O)c2cc(C(=O)OCCc3ccccc3O)sc21 [Example 159] , what is its reported IC50?
### Response 30

### Prompt Please give the measured IC50 for this compound: COc1ccc(CNC(=O)c2cc3c(=O)n(CCOc4ccc(F)cc4)c(=O)n(C)c3s2)cc1 [Example 234]
### Response 0.15

### Prompt I'd like to know its IC50. The compound in question is Cc1c(C(=O)OCc2ccccc2)sc2[nH]c(=O)n(CCc3ccccc3)c(=O)c12 [Example 5]
### Response 51

### Prompt // IC50 lookup, key: Cn1c(=O)n(Cc2ccc(C(C)(C)C)cc2)c(=O)c2cc(C(=O)OCc3ccccc3)sc21 [Example 309]
### Response 0.056

### Prompt Would you kindly share the measured IC50 for Cn1c(=O)n(CN2C(=O)c3ccccc3C2=O)c(=O)c2cc(C(=O)OCc3ccccc3)sc21 [Example 117] ?
### Response 0.036

### Prompt Need IC50, item COc1ccc(CNC(=O)c2cc3c(=O)n(CCN)c(=O)n(C)c3s2)cc1 [Example 235]
### Response 18

### Prompt Please look up its IC50: CCCCCOC(=O)c1cc2c(=O)n(Cc3ccccc3)c(=O)n(C)c2s1 [Example 180]
### Response 30

### Prompt Returns the measured IC50 for the input compound. Input: COc1ccc(CNC(=O)c2cc3c(=O)n(CC=C(C)C)c(=O)n(C)c3s2)cc1 [Example 267]
### Response 1.1

### Prompt For the compound O=C(OCc1ccccc1)c1cc2c(=O)n(Cc3ccccc3)c(=O)[nH]c2s1 [Example 1] , what IC50 is on record?
### Response 0.74

### Prompt # query: IC50 of entry COc1cccc(CNC(=O)c2cc3c(=O)n(CCS(=O)(=O)Cc4ccccc4)c(=O)n(C)c3s2)c1 [Example 282]
### Response 10

### Prompt Field request: IC50 | item: Cn1c(=O)n(CCCc2ccccc2)c(=O)c2cc(C(=O)OCc3ccccc3)sc21 [Example 143]
### Response 0.28

### Prompt Fill in: IC50 of CC/C=C/Cn1c(=O)c2cc(C(=O)NCc3ccc(OC)cc3)sc2n(C)c1=O [Example 260] is ___
### Response 0.063
